Item-by-item account of pEC50
System: NIH3T3
EXPERIMENTAL_PROTOCOL: Inhibition of Ha-Ras processing in NIH3T3 Ras transformed cells.
Format: functional, Homo sapiens
RUN_CONDITIONS: Mus musculus, read-out: ED50 (the source's name)
pEC50: −log10 of the molar value.
VALUE_TYPE: pEC50

[[record]]
smi = "CSCC[C@@H](C(=O)O)N(C)C(=O)c1ccc(CNc2cccnc2)cc1-c1ccccc1"
result_number = 4.00

[[record]]
smi = "CS(=O)(=O)CC[C@H](NC(=O)c1ccc(CNc2cccnc2)cc1-c1ccccc1)C(=O)O"
result_number = 4.00

[[record]]
smi = "CSCC[C@H](NC(=O)c1ccc(NC[C@@H](N)CS)cc1-c1ccccc1)C(=O)O"
result_number = 6.00

[[record]]
smi = "COC(=O)[C@H](CCSC)NC(=O)c1ccc(NC[C@@H](N)CS)cc1-c1ccccc1"
result_number = 6.70

